Tested on: canine cardiac myofibrillar Ca++-dependent Mg++-ATPase
test-name: Measurement of myofibrillar Ca++-dependent Mg++-ATPase activity on canine cardiac myofibrils
Type: biochemical
condition-context: 30 μM; pH 7.0, 21° C.
measured-attribute: pCa (shift of the pCa giving 50% of the maximal control ATPase activity; Ca++ sensitivity)

1. CC1SC(=O)NN=C1c1ccc2c(c1)C(=Cc1ccccc1[N+](=O)[O-])C(=O)N2 (stereo not shown) | +0.17 ± 0.03
2. CCOC(=O)CON=C1C(=O)Nc2ccc(C3=NNC(=O)SC3C)cc21 (stereo not shown) | +0.05 ± 0.02
3. CC1SC(=O)NN=C1c1ccc2c(c1)C(=Cc1ccccc1)C(=O)N2 (stereo not shown) | +0.43 ± 0.07
4. CC1SC(=O)NN=C1c1ccc2c(c1)C(=C(C#N)C#N)C(=O)N2 (stereo not shown) | +0.05 ± 0.07
5. CC1SC(=O)NN=C1c1ccc2c(c1)C(=NNc1ccc(C(=O)O)cc1)C(=O)N2 (stereo not shown) | +0.40 ± 0.02
6. CC1SC(=O)NN=C1c1ccc2c(c1)C(=Cc1ccccn1)C(=O)N2 (stereo not shown) | +0.19 ± 0.08
7. CC1SC(=O)NN=C1c1ccc2c(c1)C(=Nc1ccccc1)C(=O)N2 (stereo not shown) | +0.38 ± 0.06
8. CC1SC(=O)NN=C1c1ccc2c(c1)C(=NNc1ccccn1)C(=O)N2.Cl (stereo not shown) | +0.05 ± 0.06
9. COC(=S)NN=C1C(=O)Nc2ccc(C3=NNC(=O)SC3C)cc21 (stereo not shown) | +0.33 ± 0.05
10. CC1SC(=O)NN=C1c1ccc2c(c1)C(=Cc1ccncc1)C(=O)N2 (stereo not shown) | +0.04 ± 0.08
11. CON=C1C(=O)Nc2ccc(C3=NNC(=O)SC3C)cc21 (stereo not shown) | 0.60 ± 0.11
12. CC1SC(=O)NN=C1c1ccc2c(c1)C(=NNc1ccc(F)cc1)C(=O)N2 (stereo not shown) | +1.01 ± 0.07
13. CC1SC(=O)NN=C1c1ccc2c(c1)C(=NNc1ccccc1C(F)(F)F)C(=O)N2 (stereo not shown) | +0.43 ± 0.04

* * *

Test system: anaesthetised dog
test-name: Cardiotonic activity in the dog (haemodynamics)
Format: in vivo, dog (male Beagle)
condition-context: i.v., 0.3 mg/kg
measured-attribute: AoBP (%)

1) CC1SC(=O)NN=C1c1ccc2c(c1)C(=NO)C(=O)N2 (centres unmarked) [Example 1] | -9
2) COC(=S)NN=C1C(=O)Nc2ccc(C3=NNC(=O)SC3C)cc21 (centres unmarked) [Example 3] | -29
3) CC1SC(=O)NN=C1c1ccc2c(c1)C(=NNc1ccccc1)C(=O)N2 (centres unmarked) [Example 5] | -12
4) CON=C1C(=O)Nc2ccc(C3=NNC(=O)SC3C)cc21 (centres unmarked) [Example 2] | -9
5) CC1SC(=O)NN=C1c1ccc2c(c1)C(=Cc1ccccc1O)C(=O)N2 (centres unmarked) [Example 17] | -8

* * *

Test system: canine cardiac myofibrillar Ca++-dependent Mg++-ATPase
test-name: Measurement of myofibrillar Ca++-dependent Mg++-ATPase activity on canine cardiac myofibrils
Type: biochemical
condition-context: 30 μM; pH 7.0, 21° C.
measured-attribute: pCa (shift of the pCa giving 50% of the maximal control ATPase activity; Ca++ sensitivity)

1) CC1SC(=O)NN=C1c1ccc2c(c1)C(=NNC(=N)N)C(=O)N2 (centres unmarked) [Example 12] | +0.08 ± 0.02
2) CC1SC(=O)NN=C1c1ccc2c(c1)C(=NNc1c(F)c(F)c(F)c(F)c1F)C(=O)N2 (centres unmarked) [Example 32] | +0.10 ± 0.04
3) CC1SC(=O)NN=C1c1ccc2c(c1)C(=NNc1cccnc1)C(=O)N2 (centres unmarked) [Example 36] | +0.92 ± 0.06
4) CC1SC(=O)NN=C1c1ccc2c(c1)C(=NNCc1ccccc1)C(=O)N2 (centres unmarked) [Example 22] | +0.64 ± 0.1
5) Cc1ccc(NN=C2C(=O)Nc3ccc(C4=NNC(=O)SC4C)cc32)cc1 (centres unmarked) [Example 21] | +1.30 ± 0.00
6) CC1SC(=O)NN=C1c1ccc2c(c1)C(=NN)C(=O)N2 (centres unmarked) [Example 7] | +0.17 ± 0.02
7) CC1SC(=O)NN=C1c1ccc2c(c1)C(=NNc1ccc(C(C)(C)C)cc1)C(=O)N2 (centres unmarked) [Example 24] | +0.49 ± 0.06
8) CC1SC(=O)NN=C1c1ccc2c(c1)C(=NNC(=O)c1ccncc1)C(=O)N2 (centres unmarked) [Example 39] | +0.04 ± 0.02
9) CC1SC(=O)NN=C1c1ccc2c(c1)C(=NO)C(=O)N2 (centres unmarked) [Example 1] | 0.25 ± 0.07
10) CC1SC(=O)NN=C1c1ccc2c(c1)C(=NN(C)c1ccccc1)C(=O)N2 (centres unmarked) [Example 26] | +0.65 ± 0.05
11) CC#N.CC1SC(=O)NN=C1c1ccc2c(c1)C(=NNc1ccc(S(C)(=O)=O)cc1)C(=O)N2 (centres unmarked) [Example 33] | +0.37 ± 0.05
